Recorded self-cleavage kobs at 2500 uM GlcN6P, one value per entry.
B1: glmS ribozyme (parent)
chain: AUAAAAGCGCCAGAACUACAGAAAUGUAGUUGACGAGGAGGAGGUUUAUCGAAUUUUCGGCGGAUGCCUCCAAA

Variants of: B1
Test: self-cleavage kobs at 2500 uM GlcN6P; higher = faster cleavage; RNA array
Conditions: with glucosamine-6-phosphate
This sample holds only a part of the variants without activity.

sequence-record	value-prefix	self-cleavage kobs at 2500 uM GlcN6P / s⁻¹
AUAAAAGCGCCAGACCUACAGAAAUGUAGAUGCCGAGGAGUAGGUUUAUUGAAUUUUCGGCGGAUGCAUGCAAA [A15C U30A A33C G41U C50U C68A C70G]	<	1e-05
AUAAAAGCGCCAGAACUACAGAAAUGUAGUUGAUGAUGAGGAGGUUUAUCGAAUUUUCGGCGGAUGCCUCCAAA [C34U G37U]	<	1e-05
AUAAAAGCGCCAGAACUACAGAAAUGUAGUUGACGAGGAGGAGGCUUAUCGAAGUAUCGGCGGAUGCCUCCAAA [U45C U54G U56A]	=	0.000428
AUAAAAGCGCUAGAGCUACAGAAAUGUAGUUGAUGAGGAGGAGGUUUAUCGAAUUUCCGGCGGAUGCCUCAAAA [C11U A15G C34U U57C C71A]	<	1e-05
AUAAAAGCGCCGGCACUACAGAAAUGUAGUUGACGAGGAGGAGGUUUAUCGAAUUUUCGGCGGGUGCCUCCAAA [A12G A14C A64G]	=	4.13e-05
AUAAAGGCGCCAGAACUACAGAAAUGUAGUUGACGAGGAGGAUGUUUAUCGAAUUUUCGGCGGACGCCUCCAAA [A6G G43U U65C]	<	1e-05
AUAAAUGCGUCAGAACUACAGAAAUGUAGUUGACGAGGAGGAGGUUUAUCGAAUUUUCGGCGGAUGCCUCCAAA [A6U C10U]	<	1e-05
AUAAAAGCGCCGGAACUACAGAAAUGUACUUGACGAGGAGGAGGUUUAUCGAAUUUUCGGCGGAUGCCUCCAAA [A12G G29C]	=	4.98e-05
AUAAAAGCGCCAGAACUACAGAAAUGUAGUCGACGAGGAGGAGGUUUAUCGAAUUUUCGGCGGAUGUCUCCAAA [U31C C67U]	=	0.000785
AUAAAAGUGCCAGAACUACAGAAAUGUAGUUGACGAGGAGGAGGUUUAUCGAAUGUUCGGCGGAGGCCUCCAAA [C8U U55G U65G]	<	1e-05
AUAAAAGCGGCAGAACUACAGAAAUGUAGUUGACGAGGAGGAGGUUUAUCGAAUUUUCGCCGGAUGCCUCCAAA [C10G G60C]	=	0.00117
AUAAAAGCGCCAGAACUACAGAAAUGUAGUUAACGAGGAGGAGGUUGAUCGAAUUUUCGGCGGAUGCCUCCAAA [G32A U47G]	=	0.000687
AUAAAAGCGCCAGAACUACAGAAAUGUAGCUGACGGGGAGGAGGUUUAUCGAAUUUUCGGCGGAUGACUCCAAA [U30C A36G C67A]	<	1e-05
AUAAAAGCGCCAGAAGUACAGAAAUGUAGUUGACGAGGAGGAGGUUUAUGGAAUUUUCGGCGGAUGCCUCCAAA [C16G C50G]	=	6.05e-05
AUAAAAGCGCCAGAGUUACAGAAAUGUAGUUGACGAGGAGGAGGUUUAUCGAAUUUUCGGCGGAUGCGUCCAAA [A15G C16U C68G]	=	8.91e-05
AUAAAAGCGCGAGAACUACAGAAAUGUAGUUGACGAGGAGGAGGUUUAUCGAAUUUUCGCCGCAUGCCUCCAAA [C11G G60C G63C]	<	1e-05
AUAAAAGCUCCAGAUCUACAGAAAUGUAGUUGACGAGGAGGGGGUUUAUCGAAUUUUCGGCGCAUGCCGCCAAA [G9U A15U A42G G63C U69G]	<	1e-05
AUAAAAGCGCCAGCACUACAGAAAUGUAGUUGACGAGGAGGAGGUUGAUCGAAUUUUCGGCGGAUGCCUACAAA [A14C U47G C70A]	=	6.72e-05
AUAAAAGCGCCAGAACUACAGAAAUGUAGUUGACAAGGAGAAGGUUUAUCGAAGUUUCGGCGGAUGCCUCCAAA [G35A G41A U54G]	<	1e-05
AUAAAAGCGCCAGUAGUACAGAAAUGUAGUUGACGAGGAGGAGGUUUAUCGAAUUUUCGGCGGAUGCCUCCAAA [A14U C16G]	=	0.000429
AUAAAAGCGCCAGAACUACAGAAAUGUAGUUGACGAGGAGGAGGUUAAUCGAAUUUUCGGCGGAGGCCCCCAAA [U47A U65G U69C]	=	0.00114
AUAAAAGCGCCAGAACUACAGAAAUGUAGUUGACGAGGAGGAGGUUUAUCGAAUUUUCGGCGGGUCCCUCCAAA [A64G G66C]	=	0.00103
